Every entry's value here was drawn from PubChem BioAssay (NCI).

Tested on: RXF 393 renal
Assay: NCI-60 one-dose screen, 48 h
Conditions: 10 µM unless noted
The panel holds about 83,000 compounds, 20% with a hit somewhere; the sample as a whole holds those more often. Calls of active or inactive are those of the source. Rule for the calls: active = growth percent below 10; inactive = the rest.
Outcome codes: active, inactive

1. COc1ccc(CNc2c3ccccc3nc3ccccc23)cc1F: inactive
2. COc1ccc(CC2c3cc(OC)c(OC)cc3CC[N+]2(C)CCC(=O)OCCCCCOC(=O)CC[N+]2(C)CCc3cc(OC)c(OC)cc3C2Cc2ccc(OC)c(OC)c2)cc1OC (configuration not stated): inactive
3. O=C1OCC2=C1C(c1ccccc1)c1cc3c(cc1N2CCO)OCO3 (configuration not stated): inactive
4. CCN(CC)c1ccc(/C=C2/NC(=O)NC2=O)cc1: inactive
5. CNC(=O)c1c(NC(=O)c2ccc(C(C)C)cc2)sc2c1CCC(=O)C2: active
6. COc1ccc(C2=NNC(c3ccc(Oc4nc5c(c(=O)n(C)c(=O)n5C)n4C)c(OC)c3)C2)cc1 (configuration not stated): inactive
7. Cc1ccsc1C(=O)CC(=O)C(F)(F)C(F)(F)C(F)(F)F: inactive
8. COc1ncnc2[nH]cc(CN3CCN(c4ccc(F)cc4)CC3)c12: inactive
9. CCC(=O)NC1=C(Cl)C(=O)C(NC(=O)CC)=C(Cl)C1=O: inactive
10. O=C(Cc1ccc([N+](=O)[O-])cc1)Oc1ccccc1: inactive
11. COc1cc(C2CC(c3cccc(Nc4ccnc5cc(Cl)ccc45)c3)=NN2C=O)cc(OC)c1OC (configuration not stated): active
12. COc1ccc(C(=O)C(CN(C)C)c2ccc(OC)cc2)cc1 (configuration not stated): inactive
